- Experimental target: EGF receptors on A-431 human epidermoid carcinoma cells (Homo sapiens)
- Construct: A-431 human epidermoid carcinoma cells or human foreskin fibroblasts (HFF); endogenous in cells; host or cells: A-431 human epidermoid carcinoma cells
- Experiment description: Radioreceptor assay, 125I-EGF binding to cells (Example XII)
- Setup conditions: 1 nM 125I-EGF; read-out: Binding IC50 (M) A-431
Positions of bridges follow the written chain, without caps; N, C: chain ends.
Measured endpoint: IC50

I am curious: what IC50 value has been reported for Ac-Cys-His-Ser-Gly-Tyr-Val-Gly-Ala-Arg-Cys-OMe (Ac-CHSGYVGARC-OMe; disulfide 1-10 (inferred)) [Peptide 3] ?
4e-07 M
